- TESTED_TARGET: purified recombinant human Aggrecanase-1 (rAgg1) (Homo sapiens)
- Sequence (O75173 213-837): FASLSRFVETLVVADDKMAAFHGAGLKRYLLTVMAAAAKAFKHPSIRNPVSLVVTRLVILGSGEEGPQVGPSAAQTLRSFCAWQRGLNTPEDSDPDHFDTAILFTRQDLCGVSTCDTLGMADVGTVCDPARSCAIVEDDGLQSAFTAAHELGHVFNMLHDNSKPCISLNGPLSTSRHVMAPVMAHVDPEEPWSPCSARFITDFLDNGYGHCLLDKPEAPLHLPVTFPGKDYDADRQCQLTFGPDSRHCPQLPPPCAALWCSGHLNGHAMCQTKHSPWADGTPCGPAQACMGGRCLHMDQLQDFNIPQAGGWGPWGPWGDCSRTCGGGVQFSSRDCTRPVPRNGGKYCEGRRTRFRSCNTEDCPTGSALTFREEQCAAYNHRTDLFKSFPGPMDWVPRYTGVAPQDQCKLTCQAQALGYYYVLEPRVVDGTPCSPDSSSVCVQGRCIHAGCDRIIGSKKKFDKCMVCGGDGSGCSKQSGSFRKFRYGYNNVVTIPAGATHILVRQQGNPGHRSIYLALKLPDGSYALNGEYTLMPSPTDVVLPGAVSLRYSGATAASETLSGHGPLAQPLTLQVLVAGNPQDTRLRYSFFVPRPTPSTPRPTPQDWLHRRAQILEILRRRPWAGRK
- EXPERIMENT: In vitro fluorescence screen for Aggrecanase-1 inhibitors
- Assay type: biochemical
- CONDITIONS_USED: Table 2; read-out: Agg1 IC50

COMPOUND: O=C(O)CC[C@H](NC(=O)c1ccc(-c2ccccc2)cc1)C(=O)N[C@H](CO)Cc1ccccc1
TESTED_TARGET: purified recombinant human Aggrecanase-1 (rAgg1) (Homo sapiens)
MEASUREMENT_UNITS: nM
RESULT_QUALIFIER: =
IC50: 550

COMPOUND: O=C(O)CC[C@H](NC(=O)c1ccc(Oc2ccccc2)cc1)C(=O)NCCCCCCO
TESTED_TARGET: purified recombinant human Aggrecanase-1 (rAgg1) (Homo sapiens)
MEASUREMENT_UNITS: nM
RESULT_QUALIFIER: >
IC50: 17000

COMPOUND: COc1cc(CNC(=O)C(CCC(=O)O)NC(=O)c2ccc(-c3ccc4c(c3)OCO4)cc2)cc(OC)c1OC (stereo not drawn) [Example 17N]
TESTED_TARGET: purified recombinant human Aggrecanase-1 (rAgg1) (Homo sapiens)
MEASUREMENT_UNITS: nM
RESULT_QUALIFIER: =
IC50: 40

COMPOUND: CCc1ccc(-c2ccc(C(=O)N[C@@H](CCC(=O)O)C(=O)NCc3cc(OC)c(OC)c(OC)c3)cc2)cc1 [Example 17E]
TESTED_TARGET: purified recombinant human Aggrecanase-1 (rAgg1) (Homo sapiens)
MEASUREMENT_UNITS: nM
RESULT_QUALIFIER: =
IC50: 251

COMPOUND: C[C@@H](NC(=O)[C@H](CCC(=O)O)NC(=O)c1ccc(-c2ccccc2)cc1)c1ccccc1
TESTED_TARGET: purified recombinant human Aggrecanase-1 (rAgg1) (Homo sapiens)
MEASUREMENT_UNITS: nM
RESULT_QUALIFIER: =
IC50: 317

COMPOUND: CCOc1ccccc1-c1ccc(C(=O)N[C@@H](CCC(=O)O)C(=O)NCc2cc(OC)c(OC)c(OC)c2)cc1 [Example 17A]
TESTED_TARGET: purified recombinant human Aggrecanase-1 (rAgg1) (Homo sapiens)
MEASUREMENT_UNITS: nM
RESULT_QUALIFIER: =
IC50: 116

COMPOUND: CC(C)(NC(=O)[C@H](CCC(=O)O)NC(=O)c1ccc2c(c1)C(=O)c1ccccc1-2)c1ccccc1
TESTED_TARGET: purified recombinant human Aggrecanase-1 (rAgg1) (Homo sapiens)
MEASUREMENT_UNITS: nM
RESULT_QUALIFIER: =
IC50: 20000

COMPOUND: O=C(O)CC[C@H](NC(=O)c1cccc(Oc2ccccc2)c1)C(=O)NCc1ccccc1
TESTED_TARGET: purified recombinant human Aggrecanase-1 (rAgg1) (Homo sapiens)
MEASUREMENT_UNITS: nM
RESULT_QUALIFIER: >
IC50: 17000

COMPOUND: COc1cccc(COc2ccc(-c3ccc(C(=O)N[C@@H](CCC(=O)O)C(=O)NCc4cc(OC)c(OC)c(OC)c4)cc3)cc2)c1 [Example 19H]
TESTED_TARGET: purified recombinant human Aggrecanase-1 (rAgg1) (Homo sapiens)
MEASUREMENT_UNITS: nM
RESULT_QUALIFIER: =
IC50: 69
